Subject Of Test: KRAS WT (Homo sapiens (Human), UniProt P01116)
Sequence (P01116-2 other isoform, or with tags, fused parts or gaps): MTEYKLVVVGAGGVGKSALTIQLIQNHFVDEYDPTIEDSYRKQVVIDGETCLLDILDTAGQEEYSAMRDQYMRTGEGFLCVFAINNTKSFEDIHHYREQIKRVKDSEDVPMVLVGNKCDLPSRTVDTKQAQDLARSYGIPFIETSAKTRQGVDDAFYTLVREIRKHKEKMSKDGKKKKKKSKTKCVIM
Assay Text: KRAS WT Biochemical Assay, BODIPY-GDP Exchange TR-FRET (Example 501; 3 nM KRAS WT, 3 nM SOS1, 60-minute incubation)
Measurement Setup: read-out: KRas HTRF IC50
Observable: pIC50
Reminder that pIC50 means the negative base-10 logarithm of the concentration expressed in mol/L.

The examples below pair each entry with its known result.
{"columns": ["Molecule", "pIC50"],
 "data": [
  ["Cc1nc(N)c(F)c(-c2nc3c4c(nc(OC[C@@]56CCCN5C[C@H](F)C6)nc4c2F)N2C[C@H]4CC[C@H](N4)[C@H]2[C@H](C)O3)c1C(F)(F)F", 7.54],
  ["Cc1nc(N)c(F)c(-c2nc3c4c(nc(OC[C@@]56CCCN5C[C@H](F)C6)nc4c2F)N2C[C@H]4CC[C@H](N4)[C@H]2[C@H](C(F)(F)F)O3)c1C(F)(F)F", 7.77]
]}

Note: attention shifts to another entry.
Any idea what pIC50 was measured for Cc1cc(N)c(Cl)c(-c2nc3c4c(nc(OC[C@@]56CCCN5C[C@H](F)C6)nc4c2Cl)N2C[C@H]4CC[C@H](N4)[C@H]2[C@H](C)O3)c1C(F)(F)F (single isomer, unassigned) [Compound 240 (atrop. 1)] ?
5.97

----------
Subject Of Test: KRAS G12D (Homo sapiens (Human), UniProt P01116, G12D)
Sequence (P01116-2 other isoform, or with tags, fused parts or gaps G12D): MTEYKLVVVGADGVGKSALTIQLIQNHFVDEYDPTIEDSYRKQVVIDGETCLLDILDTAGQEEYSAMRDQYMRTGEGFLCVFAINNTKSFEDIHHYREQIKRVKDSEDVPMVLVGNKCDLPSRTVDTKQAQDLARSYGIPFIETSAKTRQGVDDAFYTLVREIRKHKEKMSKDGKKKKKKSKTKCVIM
Assay Text: KRAS G12D LoEnz Biochemical Assay, BODIPY-GDP Exchange TR-FRET (SOS1-mediated nucleotide exchange)
Measurement Setup: read-out: KRas (G12D) GDP HTRF IC50
Observable: log10(IC50) (log10 of the value in pM)
Could you please treat all values as log10 of IC50 in pM?

Examples with their reported log10(IC50) follow.
{"columns": ["Compound", "log10(IC50)"],
 "data": [
  ["C#Cc1cccc2cc(O)cc(-c3nc4c5c(nc(OC[C@@]67CCCN6C[C@H](F)C7)nc5c3F)N3C[C@H]5CC[C@H](CN5CCCF)[C@H]3CO4)c12", 2.38],
  ["Cc1c(F)c(N)c(F)c(-c2nc3c4c(nc(OCC5(CN6CCOCC6)CC5)nc4c2F)N2C[C@H]4CC[C@H](N4)[C@H]2[C@H](C)O3)c1C(F)(F)F", 2.26],
  ["Cc1c(F)c(N)cc(-c2nc3c4c(nc(OC[C@H]5CC[C@@H]6CN(C)C(=O)CN56)nc4c2F)N2C[C@H]4CC[C@H](N4)[C@H]2[C@H](C)O3)c1C(F)(F)F (single isomer, unassigned) [131 (isomer 2)]", 3.12],
  ["CCc1c(F)c(N)cc(-c2nc3c4c(nc(OC[C@@H]5CC[C@H]6COCCN65)nc4c2F)N2C[C@H]4CC[C@H](N4)[C@H]2[C@H](C)O3)c1C(F)(F)F", 3.46],
  ["C[C@@H]1Oc2nc(-c3cccc4cccc(Cl)c34)c(F)c3nc(OC[C@@]45CCCN4C[C@H](F)C5)nc(c23)N2C[C@H]3CC[C@H](N3)[C@@H]12", 3.25],
  ["Cc1c(F)c(N)cc(-c2nc3c4c(nc(OC[C@H]5C[C@@H]6COCCN65)nc4c2F)N2C[C@H]4CC[C@H](N4)[C@H]2[C@H](C)O3)c1C(F)(F)F (single isomer, unassigned) [159 (diast. 1)]", 2.45],
  ["Cc1c(F)c(N)cc(-c2nc3c4c(nc(OCCCN5C[C@@H]6C[C@H]5CO6)nc4c2F)N2C[C@H]4CC[C@H](N4)[C@H]2[C@H](C)O3)c1C(F)(F)F", 2.18],
  ["Cc1nc(N)cc(-c2nc3c4c(nc(OCC5(CN6C7CCC6COC7)CC5)nc4c2F)N2C[C@H]4CC[C@H](N4)[C@H]2[C@H](C)O3)c1C(F)(F)F", 2.23]
]}

Look up log10(IC50): "Cc1cc(N)cc(-c2nc3c4c(nc(OC[C@]56CCCN5CC(F)(F)C6)nc4c2F)N2C[C@H]4CC[C@H](N4)[C@H]2[C@H](C)O3)c1C(F)(F)F"
2.49

Moving on to the next compound: "C[C@@H]1Oc2nc(-c3cc(N)c(F)c(F)c3CC(F)(F)F)c(F)c3nc(OC[C@@]45CCCN4C[C@H](F)C5)nc(c23)N2C[C@H]3CC[C@H](N3)[C@@H]12"
2.32

Cool, now C[C@@H]1Oc2nc(-c3nc(N)c(F)cc3C(F)(F)F)c(F)c3nc(OC[C@@]45CCCN4CC4(CC4(F)F)C5)nc(c23)N2C[C@H]3CC[C@H](N3)[C@@H]12 (stereo partly drawn)
3.67

Item: "Cc1c(F)c(O)cc(-c2nc3c4c(nc(OC[C@@]56CCCN5C[C@H](F)C6)nc4c2F)N2C[C@H]4CC[C@H](N4)[C@H]2[C@H](C)O3)c1C(F)(F)F"
3.30

Next compound up: Cc1c(F)c(N)cc(-c2nc3c4c(nc(OC[C@]5(CC(F)F)CCCN5C)nc4c2F)N2C[C@H]4CC[C@H](N4)[C@H]2[C@H](C)O3)c1C(F)(F)F (single isomer, unassigned) [150 (isomer 2)]
2.40

Now this one: "Cc1c(F)c(N)cc(-c2nc3c4c(nc(OC[C@H](F)CN5CC6(COC6)C5)nc4c2F)N2C[C@H]4CC[C@H](N4)[C@H]2[C@H](C)O3)c1C(F)(F)F"
2.70

Consider next the compound "Cc1c(F)c(N)cc(-c2nc3c4c(nc(OCC5CN(CC(F)F)C5)nc4c2F)N2C[C@H]4CC[C@H](N4)[C@H]2[C@H](C)O3)c1C(F)(F)F" in the same way.
2.68

----------
Parameter IC50: see the listing below.
Subject Of Test: KRAS G12D (Homo sapiens (Human), UniProt P01116, G12D)
Assay Text: KRAS G12D LoEnz Biochemical Assay, BODIPY-GDP Exchange TR-FRET (SOS1-mediated nucleotide exchange)
Measurement Setup: read-out: KRas (G12D) GDP HTRF IC50
Experimental: Example 500: KRAS G12D LoEnz Biochemical Assay, BODIPY-GDP Exchange TR-FRET. Biochemical compound potencies are assessed by evaluating inhibition of SOS1I-mediated nucleotide exchange in KRAS G121D. In this assay, the SOS1-promoted exchange of fluorescently-labeled GDP (BOPIDY-GDP) is monitored by time-resolved fluorescence resonance energy transfer (TR-FRET). […] After a 120-minute incubation, the fluorescence is measured with excitation at 337 nm and emission at 490 and 520 nm. […]
Lab book: enter the figure in nM, no units written.

{"columns": ["Structure String", "IC50 / nM"],
 "data": [
  ["C[C@@H]1Oc2nc(-c3cc(O)cc4ccccc34)c(F)c3nc(OC[C@]45CCN4CC(F)(F)C5)nc(c23)N2C[C@H]3CC[C@H](N3)[C@@H]12", 2.04],
  ["Cc1cc(N)cc(-c2nc3c4c(nc(OC[C@@H]5CC[C@H]6COCCN65)nc4c2F)N2C[C@H]4CC[C@H](N4)[C@H]2[C@H](C)O3)c1CC(F)F", 1.13]
]}

Switching to the query record.
So what does the record say about IC50 for "Cc1c(F)c(N)cc(-c2nc3c4c(nc(OCC56COC(CN5C)C6)nc4c2F)N2C[C@H]4CC[C@H](N4)[C@H]2[C@H](C)O3)c1C(F)(F)F" ?
1.47

----------
Subject Of Test: KRAS G12D (Homo sapiens (Human), UniProt P01116, G12D)
Assay Text: KRAS G12D LoEnz Biochemical Assay, BODIPY-GDP Exchange TR-FRET (SOS1-mediated nucleotide exchange)
Measurement Setup: read-out: KRas (G12D) GDP HTRF IC50
Observable: IC50 (nM)
Numeric only. Scale: nM

{"columns": ["Compound", "IC50, nM"],
 "data": [
  ["Cc1c(F)c(N)cc(-c2nc3c4c(nc(OC[C@@]56CCCN5C[C@H](F)C6)nc4c2F)N2CCNC[C@H]2[C@H](C)O3)c1C(F)(F)F (single isomer, unassigned) [235 (isomer 1)]", 65.8],
  ["C[C@@H]1Oc2nc(-c3c(C(F)(F)F)cc(F)c(N)c3F)c(F)c3nc(OC[C@@]45CCCN4C[C@H](F)C5)nc(c23)N2C[C@H]3CC[C@H](N3)[C@@H]12", 0.47],
  ["Cc1c(F)c(N)cc(-c2nc3c4c(nc(OC[C@]56CCN(C)C5COC6)nc4c2F)N2C[C@H]4CC[C@H](N4)[C@H]2[C@H](C)O3)c1C(F)(F)F (single isomer, unassigned) [258 (isomer 2)]", 0.07],
  ["C[C@@H]1Oc2nc(N(C)c3ccc(F)c(N)c3)c(F)c3nc(OC[C@@]45CCCN4C[C@H](F)C5)nc(c23)N2C[C@H]3CC[C@H](N3)[C@@H]12", 32800],
  ["Cc1nc(N)cc(-c2nc3c4c(nc(OC[C@]56CCCN5CC(F)(F)C6)nc4c2F)N2C[C@H]4CC[C@H](N4)[C@H]2[C@H](C)O3)c1C(F)(F)F", 3.39],
  ["C[C@@H]1Oc2nc(-c3cc(N)c(F)c(Cl)c3C(F)(F)F)c(F)c3nc(OC[C@@]45CCCN4C[C@H](F)C5)nc(c23)N2C[C@H]3CC[C@H](N3)[C@@H]12", 0.05]
]}

Record lookup: for KRAS G12D (Homo sapiens (Human), UniProt P01116, G12D), what IC50 belongs to "Cc1c(F)c(N)cc(-c2nc3c4c(nc(OCCCN5C[C@H]6C[C@@H]5CO6)nc4c2F)N2C[C@H]4CC[C@H](N4)[C@H]2[C@H](C)O3)c1C(F)(F)F" ?
0.11

Also Cc1c(F)c(N)cc(-c2nc3c4c(nc(OC[C@@]56CCCN5[C@@H](C(F)F)CC6)nc4c2F)N2C[C@H]4CC[C@H](N4)[C@H]2[C@H](C)O3)c1C(F)(F)F (single isomer, unassigned) [130 (isomer 1)] ?
2.26
